# Test system: HBV
# assay.comment: Inhibition of HBV infection of non-adherent HepG2/NTCPA3 cells (intracellular HBV RNA, real-time qRT-PCR)
# Type: cell-based, Hepatitis B virus (genotype D)
# experimental.context: SI from CC50 and IC50
Consider the following molecules; for each one, report its Selectivity Index.
Output spec: single numeric token, no unit.

Query :: May I ask what Selectivity Index has been recorded for C[C@@H]1O[C@@H](O[C@@H]2C=C3CC[C@@H]4[C@H](CC[C@]5(C)[C@@H](c6ccc(=O)oc6)CC[C@]45O)[C@@]3(C)CC2)[C@H](O)[C@H](O)[C@H]1O [Proscillaridin A] ?
Result :: 75.5

Query :: Consider next the molecule C[C@]12CC[C@H](O)C[C@H]1CC[C@@H]1[C@@H]2CC[C@]2(C)[C@@H](c3ccc(=O)oc3)CC[C@]12O [Bufalin] in the same way.
Result :: 15.8

Query :: Consider next the molecule C[C@H]1O[C@@H](O[C@H]2[C@@H](O)C[C@H](O[C@H]3[C@@H](O)C[C@H](O[C@H]4CC[C@@]5(C)[C@H](CC[C@@H]6[C@@H]5CC[C@]5(C)[C@@H](C7=CC(=O)OC7)CC[C@]65O)C4)O[C@@H]3C)O[C@@H]2C)C[C@H](O)[C@@H]1O [Digitoxin] in the same way.
Result :: 18.9

Query :: Consider next the molecule C[C@@H]1O[C@@H](O[C@H]2CC[C@]3(C=O)[C@H]4CC[C@]5(C)[C@@H](C6=CC(=O)OC6)CC[C@]5(O)[C@@H]4CC[C@]3(O)C2)[C@H](O)[C@H](O)[C@H]1O [Convallatoxin] in the same way.
Result :: 15.7
